Numbers sourced from ChEMBL document CHEMBL2218924.

Biological target: Serine/threonine-protein kinase STK11 (Homo sapiens)
Sequence (whole entry): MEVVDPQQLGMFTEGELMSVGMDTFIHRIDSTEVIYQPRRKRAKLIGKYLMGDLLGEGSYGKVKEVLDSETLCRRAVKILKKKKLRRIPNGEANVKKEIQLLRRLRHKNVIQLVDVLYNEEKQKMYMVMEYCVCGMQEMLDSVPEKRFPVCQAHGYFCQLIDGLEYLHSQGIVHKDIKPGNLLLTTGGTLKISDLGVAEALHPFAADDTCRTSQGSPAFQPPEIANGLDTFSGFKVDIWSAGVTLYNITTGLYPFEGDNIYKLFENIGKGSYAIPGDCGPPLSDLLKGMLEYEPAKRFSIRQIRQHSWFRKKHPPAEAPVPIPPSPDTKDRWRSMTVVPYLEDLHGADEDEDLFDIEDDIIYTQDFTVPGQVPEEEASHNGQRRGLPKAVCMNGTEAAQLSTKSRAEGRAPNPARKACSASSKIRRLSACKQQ
Details: at 10 µM
residual activity values by entry
ASSAY_READOUT: residual activity (%)

NC(=O)c1cccc(-c2cc(Nc3ccc(OC(F)(F)F)cc3)ncn2)c1: 98
O=C1C(Cl)=C(N2C(=O)CCC2=O)C(=O)c2ccccc21: 89
O=C1Nc2ccc(Cl)cc2/C1=C/c1cc(Cl)c(O)c(Cl)c1: 86
NCCNc1ncc(C(N)=O)c(Nc2cccc(C(F)(F)F)c2)n1: 20
CC(C)[C@H](CO)Nc1nc(Nc2cc(N)cc(Cl)c2)c2ncn(C(C)C)c2n1: 72
N#C/C(=C\c1ccc(O)c(O)c1)C(=O)NCc1ccccc1: 100
CCCCc1c(-c2ccc(OC)cc2)[nH]c2nccnc12: 101
COc1ccc2c(c1)c(C1=C(c3c[nH]c4ccccc34)C(=O)NC1=O)cn2CCCN(C)C: 99
COc1cc2nccc(Oc3ccc(NC(=O)Nc4cc(C)on4)c(Cl)c3)c2cc1OC: 101
O=C1NC(=O)C(c2cn(CCCn3ccnc3)c3ccccc23)=C1Nc1ccccc1: 103
Nc1ncnc2c1cnn2-c1ccccc1: 98
O=C1NC(=O)C(c2c[nH]c3ccccc23)=C1c1c[nH]c2ccccc12: 97
CC(C)(C)n1nc(Cc2cccc3ccccc23)c2c(N)ncnc21: 61
Nc1nc(Nc2ccc(S(N)(=O)=O)cc2)nn1C(=O)c1c(F)cccc1F: 95
c1ccc(-c2cnc(Nc3ccc(OCCN4CCCC4)cc3)s2)cc1: 103
O=C(Nc1nc2ccccc2n1CCN1CCOCC1)c1cccc([N+](=O)[O-])c1: 100
COc1cc2nccc(Oc3ccc(NC(=S)NC(=O)c4ccccc4C)cc3)c2cc1OC: 90
O=C(NC(NC(=S)Nc1ccc(F)c([N+](=O)[O-])c1)C(Cl)(Cl)Cl)C(c1ccccc1)c1ccccc1 (stereo not given): 103
O=C(CCCc1ccc(-c2ccccc2F)cc1)Nc1ccc(O)cc1: 97
O=C(Nc1ccc(Cl)cc1)c1ccccc1NCc1ccncc1: 99

====

Target: Serine/threonine-protein kinase NLK (Homo sapiens)
Settings: at 1 µM
ASSAY_READOUT: residual activity (%)

O=C(CCCc1ccc(-c2ccccc2F)cc1)Nc1ccc(O)cc1: 106
Nc1ncnc2c1c(-c1ccc(Oc3ccccc3)cc1)cn2C1CCCC1: 81
Nc1nccc(-c2c(-c3ccc(F)cc3)ncn2C2CCNCC2)n1: 34
CCCCc1c(-c2ccc(O)cc2)[nH]c2nccnc12: 88
Cn1c2ccccc2c2c3c(c4c5ccccc5n(CCC#N)c4c21)CNC3=O: 50
NC(=O)Nc1sc(-c2ccc(F)cc2)cc1C(N)=O: 89
CC(C)c1nn(-c2c(Cl)cccc2Cl)c2nc(Cc3ccc(OCCO)cc3)[nH]c(=O)c12: 88
CCN1/C(=C/C(C)=O)Sc2ccc(OC)cc21: 76
O=C(c1cc2cc(O)ccc2[nH]1)c1cc2cc(O)ccc2[nH]1: 61
O=C1C(Cl)=C(N2C(=O)CCC2=O)C(=O)c2ccccc21: 95
Nc1ncnc2c1cnn2-c1ccccc1: 88
NC(=O)c1cccc(-c2cc(Nc3ccc(OC(F)(F)F)cc3)ncn2)c1: 94
CSc1nc(-c2ccc(F)cc2)c(-c2ccnc(NC(C)c3ccccc3)c2)[nH]1 (stereo not drawn): 69
